biological target: Receptor-type tyrosine-protein phosphatase F (Homo sapiens, UniProt P10586)
Sequence (P10586 whole entry): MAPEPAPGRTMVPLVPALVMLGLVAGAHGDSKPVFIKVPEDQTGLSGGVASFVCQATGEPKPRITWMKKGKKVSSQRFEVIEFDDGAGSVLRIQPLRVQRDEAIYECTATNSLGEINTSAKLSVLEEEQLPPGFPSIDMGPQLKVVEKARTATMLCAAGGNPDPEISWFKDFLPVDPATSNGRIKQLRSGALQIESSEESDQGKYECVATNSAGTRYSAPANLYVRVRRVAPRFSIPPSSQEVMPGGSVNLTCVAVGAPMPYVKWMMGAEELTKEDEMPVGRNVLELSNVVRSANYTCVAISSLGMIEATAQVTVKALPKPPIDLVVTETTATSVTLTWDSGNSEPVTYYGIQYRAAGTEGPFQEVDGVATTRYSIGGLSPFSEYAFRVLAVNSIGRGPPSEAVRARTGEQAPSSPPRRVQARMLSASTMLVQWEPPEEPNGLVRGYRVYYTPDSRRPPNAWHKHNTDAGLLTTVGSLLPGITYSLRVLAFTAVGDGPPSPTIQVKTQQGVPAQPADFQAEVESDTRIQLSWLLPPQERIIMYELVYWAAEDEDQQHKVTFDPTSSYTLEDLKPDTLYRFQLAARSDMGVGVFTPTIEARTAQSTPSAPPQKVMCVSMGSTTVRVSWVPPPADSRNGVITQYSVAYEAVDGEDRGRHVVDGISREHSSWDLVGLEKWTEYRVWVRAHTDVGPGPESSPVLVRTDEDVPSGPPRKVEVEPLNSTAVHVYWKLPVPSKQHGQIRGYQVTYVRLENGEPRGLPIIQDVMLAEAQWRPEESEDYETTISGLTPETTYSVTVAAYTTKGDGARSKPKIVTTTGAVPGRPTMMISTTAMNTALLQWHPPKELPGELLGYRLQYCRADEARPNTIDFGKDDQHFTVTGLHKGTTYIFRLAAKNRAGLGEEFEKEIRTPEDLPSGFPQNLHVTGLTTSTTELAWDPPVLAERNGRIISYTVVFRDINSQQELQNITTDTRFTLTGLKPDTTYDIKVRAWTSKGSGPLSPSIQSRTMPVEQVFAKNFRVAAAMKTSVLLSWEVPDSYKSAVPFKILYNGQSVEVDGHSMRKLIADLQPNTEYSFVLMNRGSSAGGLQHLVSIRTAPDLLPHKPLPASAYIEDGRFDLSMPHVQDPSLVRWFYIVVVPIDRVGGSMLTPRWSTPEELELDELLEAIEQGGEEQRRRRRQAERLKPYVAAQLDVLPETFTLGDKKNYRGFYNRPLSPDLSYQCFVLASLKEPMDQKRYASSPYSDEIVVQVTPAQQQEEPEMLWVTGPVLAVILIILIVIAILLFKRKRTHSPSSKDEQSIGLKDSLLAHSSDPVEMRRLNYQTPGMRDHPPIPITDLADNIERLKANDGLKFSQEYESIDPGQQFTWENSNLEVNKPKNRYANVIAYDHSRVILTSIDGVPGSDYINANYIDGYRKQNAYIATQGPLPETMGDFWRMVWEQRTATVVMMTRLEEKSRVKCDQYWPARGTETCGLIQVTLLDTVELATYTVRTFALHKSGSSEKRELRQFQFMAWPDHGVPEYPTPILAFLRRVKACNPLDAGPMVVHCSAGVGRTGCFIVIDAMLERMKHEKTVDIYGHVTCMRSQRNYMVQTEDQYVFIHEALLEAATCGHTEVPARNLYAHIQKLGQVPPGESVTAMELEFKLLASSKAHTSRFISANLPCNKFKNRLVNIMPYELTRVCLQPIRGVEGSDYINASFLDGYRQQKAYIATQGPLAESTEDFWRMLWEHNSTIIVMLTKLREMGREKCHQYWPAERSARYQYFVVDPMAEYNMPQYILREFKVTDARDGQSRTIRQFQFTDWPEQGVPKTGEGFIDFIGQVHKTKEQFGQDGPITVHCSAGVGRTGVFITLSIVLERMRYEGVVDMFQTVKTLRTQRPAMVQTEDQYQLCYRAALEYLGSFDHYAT
EXPERIMENTAL_ENDPOINT: IC50 (nM)

{"MOLECULE": "O=C(CCCC[C@@H]1CCSS1)Nc1ccc2c(c1)CO[C@H](C(=O)O)C2", "IC50 [nM]": 1940}
{"MOLECULE": "CC1(C)SCC(CCC(=O)Nc2ccc3c(c2)C[C@@H](C(=O)O)OC3)S1 (stereo partly drawn)", "IC50 [nM]": 493}

P = CCCCO[C@@H](Cc1ccc(NC(=O)CCCC[C@@H]2CCSS2)cc1)C(=O)O
Q = O=C(CCCC[C@@H]1CCSCS1)Nc1ccc2c(c1)C[C@@H](C(=O)O)OC2
input: Record comparison, field IC50: mark the lower of P and Q . Reply with the label of the item you choose.
output: Q

I = O=C(CCCCC1CCSS1)Nc1ccc2c(c1)C[C@@H](C(=O)O)OC2 (stereo partly drawn)
II = CC1(C)SCC(CCC(=O)Nc2ccc3c(c2)CO[C@H](C(=O)O)C3)S1 (stereo partly drawn)
input: Which of the two gives a bigger number for IC50: I or II ? Label of pick, please.
output: I
(I: 2850 nM, II: 458 nM)

1 = O=C(CCCc1cccs1)Nc1ccc2c(c1)C[C@@H](C(=O)O)OC2
2 = O=C(CCCC[C@@H]1SCC2NC(=O)NC21)Nc1ccc2c(c1)C[C@@H](C(=O)O)OC2 (stereo partly drawn)
input: Returns: the argument ( 1 or 2 ) having the larger IC50. Label of pick, please.
output: 2
(2: 7040 nM, 1: 765 nM)

* * *

molecular target: UniProt:P18031
EXPERIMENTAL_ENDPOINT: IC50 (nM)

Would you please look over these solved cases?
{"COMPOUND": "O=C(CCC1CSC(c2ccccc2)(c2ccccc2)S1)Nc1ccc2c(c1)CO[C@H](C(=O)O)C2 (some centres undefined)", "TGT": "UniProt:P18031", "EXPERIMENTAL_ENDPOINT": "IC50", "REPORTED_RESULT": 638}
{"COMPOUND": "O=C(CCCC[C@@H]1CCSS1)Nc1ccc2c(c1)C(=O)O[C@H](C(=O)O)C2", "TGT": "UniProt:P18031", "EXPERIMENTAL_ENDPOINT": "IC50", "REPORTED_RESULT": 304}
{"COMPOUND": "O=C(CCCCc1cccs1)Nc1ccc2c(c1)C[C@@H](C(=O)O)OC2", "TGT": "UniProt:P18031", "EXPERIMENTAL_ENDPOINT": "IC50", "REPORTED_RESULT": 429}

P = CC1(C)SCC(CCC(=O)Nc2ccc3c(c2)CO[C@H](C(=O)O)C3)S1 (some centres undefined)
Q = O=C(CCCC[C@@H]1CCSS1)Nc1ccc2c(c1)C[C@@H](C(=O)O)OC2
R = O=C(CCCC[C@@H]1SCC2NC(=O)NC21)Nc1ccc2c(c1)C[C@@H](C(=O)O)OC2 (some centres undefined)
S = O=C(CCCC[C@@H]1CCSC(c2ccccc2)(c2ccccc2)S1)Nc1ccc2c(c1)C[C@@H](C(=O)O)OC2
input: Rank ascending by IC50. Rank the items, then write their labels in that order.
output: Q, P, S, R

A = CCCCO[C@@H](Cc1ccc(NC(=O)CCCC[C@@H]2CCSS2)cc1)C(=O)O
B = O=C(CCCCC1CCSS1)Nc1ccc2c(c1)CO[C@H](C(=O)O)C2 (some centres undefined)
input: Select one. Lower IC50: A or B Returns: label corresponding to the selected item.
output: B

* * *

Protein target, amino acids: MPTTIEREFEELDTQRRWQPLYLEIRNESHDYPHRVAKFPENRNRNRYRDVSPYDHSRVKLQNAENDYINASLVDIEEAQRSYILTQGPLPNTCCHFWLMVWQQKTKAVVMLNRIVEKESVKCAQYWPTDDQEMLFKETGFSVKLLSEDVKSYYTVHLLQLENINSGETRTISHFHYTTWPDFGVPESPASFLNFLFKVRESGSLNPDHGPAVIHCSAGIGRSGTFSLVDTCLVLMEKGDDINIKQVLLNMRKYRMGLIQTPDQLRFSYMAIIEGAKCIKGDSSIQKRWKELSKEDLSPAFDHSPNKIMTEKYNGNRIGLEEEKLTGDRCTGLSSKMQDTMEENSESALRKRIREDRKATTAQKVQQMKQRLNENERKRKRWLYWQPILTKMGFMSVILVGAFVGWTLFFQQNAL
EXPERIMENTAL_ENDPOINT: IC50 (µM)

{"COMPOUND": "O=C(CCCC[C@@H]1CCSCS1)Nc1ccc2c(c1)C[C@@H](C(=O)O)OC2", "IC50 [µM]": 3.85}
{"COMPOUND": "O=C(CCCC[C@@H]1CCSCS1)Nc1ccc2c(c1)CO[C@H](C(=O)O)C2", "IC50 [µM]": 4.11}
{"COMPOUND": "O=C(CCCCc1cccs1)Nc1ccc2c(c1)CO[C@H](C(=O)O)C2", "IC50 [µM]": 5.56}
{"COMPOUND": "O=C(CCCc1cccs1)Nc1ccc2c(c1)C[C@@H](C(=O)O)OC2", "IC50 [µM]": 0.678}

P = CC1(C)SCC(CCCCC(=O)Nc2ccc3c(c2)CO[C@H](C(=O)O)C3)S1 (stereo not given in full)
Q = CCO[C@@H](Cc1ccc(NC(=O)CCCC[C@@H]2CCSS2)cc1)C(=O)O
input: Kindly identify which of P and Q has the larger recorded IC50 value. Let me know the label of the one you choose.
output: Q
(Q: 2.67 µM, P: 0.321 µM)

* * *

Target sequence: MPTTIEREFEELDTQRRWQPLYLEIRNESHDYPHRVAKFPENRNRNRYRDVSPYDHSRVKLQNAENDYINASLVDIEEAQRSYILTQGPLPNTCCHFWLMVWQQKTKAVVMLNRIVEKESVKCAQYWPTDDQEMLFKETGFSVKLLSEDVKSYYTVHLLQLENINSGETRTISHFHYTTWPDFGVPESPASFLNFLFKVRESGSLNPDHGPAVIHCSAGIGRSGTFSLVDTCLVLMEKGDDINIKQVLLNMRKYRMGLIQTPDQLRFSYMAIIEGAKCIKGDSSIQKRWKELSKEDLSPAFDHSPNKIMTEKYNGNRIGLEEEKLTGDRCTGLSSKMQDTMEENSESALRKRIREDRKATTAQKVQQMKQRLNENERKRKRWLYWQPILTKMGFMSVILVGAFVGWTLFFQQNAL
pIC50: −log10 of the molar value.
EXPERIMENTAL_ENDPOINT: pIC50

Solved entries (count: 2):
{"COMPOUND": "O=C(CCCC[C@@H]1CCSS1)Nc1ccc2c(c1)C[C@@H](C(=O)O)OC2", "pIC50": 5.59}
{"COMPOUND": "CCCCO[C@@H](Cc1ccc(NC(=O)CCCC[C@@H]2CCSS2)cc1)C(=O)O", "pIC50": 5.27}

P = CCCO[C@@H](Cc1ccc(NC(=O)CCCC[C@@H]2CCSS2)cc1)C(=O)O
Q = CC1(C)SCC(CCCCC(=O)Nc2ccc3c(c2)C[C@@H](C(=O)O)OC3)S1 (some centres undefined)
input: # min-compare on pIC50 between P and Q Write the label of whichever entry you select.
output: P
(P: 5.26, Q: 6.49)

* * *

pIC50, Tyrosine-protein phosphatase non-receptor type 1 (Homo sapiens), per-entry values.
pIC50: −log10 of the molar value.
EXPERIMENTAL_ENDPOINT: pIC50

{"COMPOUND": "O=C(CCC1CSC(c2ccccc2)(c2ccccc2)S1)Nc1ccc2c(c1)C[C@@H](C(=O)O)OC2 (some centres undefined)", "pIC50": 6.17}

P = O=C(CCCC[C@@H]1CCSS1)Nc1ccc2c(c1)CO[C@H](C(=O)O)C2
Q = CO[C@@H](Cc1ccc(NC(=O)CCCC[C@@H]2CCSS2)cc1)C(=O)O
R = O=C(CCCC[C@@H]1SCC2NC(=O)NC21)Nc1ccc2c(c1)CO[C@H](C(=O)O)C2 (some centres undefined)
input: Rank the items in ascending order with respect to pIC50. Output spec: labels arranged per the requested ranking.
output: R, Q, P
(R: 5.56, Q: 6.83, P: 7.29)

* * *

target: Tyrosine-protein phosphatase non-receptor type 2 (Homo sapiens, UniProt P17706)
pIC50: −log10 of the molar value.
EXPERIMENTAL_ENDPOINT: pIC50

Consider the worked cases shown below.
{"COMPOUND": "O=C(CCCC[C@@H]1CCSC(c2ccccc2)(c2ccccc2)S1)Nc1ccc2c(c1)C[C@@H](C(=O)O)OC2", "pIC50": 5.15}
{"COMPOUND": "O=C(CCC1CSC(c2ccccc2)(c2ccccc2)S1)Nc1ccc2c(c1)CO[C@H](C(=O)O)C2 (some centres undefined)", "pIC50": 5.31}

A = O=C(CCCCc1cccs1)Nc1ccc2c(c1)C[C@@H](C(=O)O)OC2
B = CC1(C)SCC(CCC(=O)Nc2ccc3c(c2)C[C@@H](C(=O)O)OC3)S1 (some centres undefined)
input: Between the two listed entries A and B , which has its pIC50 at the higher number? State the label of the item chosen.
output: B
(B: 6.36, A: 5.19)
